System: E.Coli Juhl
Method Description: Second in vitro antibacterial test, MIC (BHIB)
Format: cell-based
Measurement Setup: Escherichia coli, Brain Heart Infusion Broth (BHIB), read-out: MIC
Where a name gives a salt, the structure may show the parent alone.
Parameter: MIC (µg/mL)
Please reply with the bare figure in µg/mL and do not write the unit itself.

Example cases with answers are listed next.
- Compound: "NC(Cc1ccc(O)cc1)C(=O)NC1CCN(c2nc3c(cc2F)c(=O)c(C(=O)O)cn3-c2ccc(F)cc2F)C1 (stereo not drawn)"
  Uom: "µg/mL"
  MIC: 12.5
- Compound: "CCC[C@H](NC(=O)[C@@H](N)CCC)C(=O)NC1CCN(c2nc3c(cc2F)c(=O)c(C(=O)O)cn3-c2ccc(F)cc2F)C1 (stereo partly drawn) [Example 3b, hydrochloride]"
  Uom: "µg/mL"
  MIC: 25
- Compound: "NCC(=O)NC1CCN(c2nc3c(cc2F)c(=O)c(C(=O)O)cn3-c2ccc(F)cc2F)C1 (stereo not drawn)"
  Uom: "µg/mL"
  MIC: 0.78
- Compound: "CC(C)CC(N)C(=O)NC1CCN(c2nc3c(cc2F)c(=O)c(C(=O)O)cn3-c2ccc(F)cc2F)C1 (stereo not drawn)"
  Uom: "µg/mL"
  MIC: 1.56

Quick one: MIC of CCC[C@H](NC(=O)CNC(=O)CN)C(=O)NC1CCN(c2nc3c(cc2F)c(=O)c(C(=O)O)cn3-c2ccc(F)cc2F)C1 (stereo partly drawn) ?
25

Quick one: MIC of CS(=O)(=O)CC[C@H](N)C(=O)NC1CCN(c2nc3c(cc2F)c(=O)c(C(=O)O)cn3-c2ccc(F)cc2F)C1 (stereo partly drawn) [Example 31c, Hydrochloride] ?
12.5
